Data provenance is ChEMBL document CHEMBL3271938.

- Test system: P815
- assay.comment: Inhibition of colony formation in mouse P815 cells assessed as percentage of colony forming cell at 0.5 uM after 7 days by microscopic analysis relative to control
- Type: functional
- Parameters: scale not given: the % may be the effect or the level left
reported.metric: Activity (%)
Give bare numbers, in %.

These solved cases illustrate the format of a correct answer.
In [3]: df
Out[3]:
                                   compound  experimental_system  reported_metric  unit_of_measurement  experimental_result
0  COc1cc([C@H]2C=CC[C@@H]3C(=O)OC[C@@H]32)cc(OC)c1OC (relative stereo)                 P815         Activity                    %                   81
1  COc1cc([C@H]2C=CC[C@@H]3C(=O)OC[C@H]32)cc(OC)c1OC                 P815         Activity                    %                   89
2  O=C1OC[C@H]2CC=C[C@H](c3ccc4c(c3)OCO4)[C@@H]12                 P815         Activity                    %                   89
3                 O=C1OC[C@H]2CC=CC[C@@H]12                 P815         Activity                    %                   93
4  COc1cc([C@@H]2c3cc4c(cc3[C@H](O)[C@H]3COC(=O)[C@H]23)OCO4)cc(OC)c1OC [PODOFILOX]                 P815         Activity                    %                    0
5  O=C1OC[C@H]2CC=C[C@H](c3ccc4c(c3)OCO4)[C@H]12                 P815         Activity                    %                  101

Record Activity for all entries; do not skip any.
1. O=C1OC[C@H]2CC=C[C@H](c3ccccc3)[C@H]12
2. O=C1OC[C@H]2CC=CC[C@H]12
3. O=C1OC[C@H]2[C@@H]1CC=C[C@@H]2c1ccc2c(c1)OCO2
4. COc1cc([C@H]2C=CC[C@@H]3COC(=O)[C@H]32)cc(OC)c1OC (relative stereo)
5. O=C1OC[C@@H]2[C@@H]1CC=C[C@@H]2c1ccc2c(c1)OCO2

*A*
1. 74
2. 102
3. 71
4. 84
5. 100
